Tested on: PRTN_A
assay text: Inhibition of probe labeling at screening concentration (Table 1)
Format: binding
assay setup: 500 μM
endpoint: Percentage inhibition of probe labeling, PRTN_A (%)
Write down the numeric answer in % and omit the unit.

The cases that follow already have their Percentage inhibition of probe labeling, PRTN_A on record.
[[record]]
smiles_representation = "CCc1ccccc1-c1cccc(NC2CCN(C(=O)/C=C/CC(C)C)CC2)c1"
assayed_target = "PRTN_A"
measured = 10

[[record]]
smiles_representation = "C=CC(=O)N1CCC(Cc2cccc(-c3ccccc3NC(C)=O)c2)CC1"
assayed_target = "PRTN_A"
measured = 8


## Task // Percentage inhibition of probe labeling, PRTN_A lookup, key: `C=CC(=O)N1CCC(Oc2cc(C)cc(-c3ccccc3OC)c2)CC1`
## Result 7

## Task // Percentage inhibition of probe labeling, PRTN_A lookup, key: `C=CC(=O)N1CCC(Oc2cc(C)cc(-c3ccccc3)c2)CC1`
## Result 5

## Task // Percentage inhibition of probe labeling, PRTN_A lookup, key: `C=CC(=O)N1CCC(Nc2cc(C(N)=O)cc(-c3ccccc3CC)c2)CC1`
## Result −2

----------
Quick list: inhibition at 500 µM per entry.
assayed target: CRBN-287 (Homo sapiens)
Sequence (Q96SW2 whole entry): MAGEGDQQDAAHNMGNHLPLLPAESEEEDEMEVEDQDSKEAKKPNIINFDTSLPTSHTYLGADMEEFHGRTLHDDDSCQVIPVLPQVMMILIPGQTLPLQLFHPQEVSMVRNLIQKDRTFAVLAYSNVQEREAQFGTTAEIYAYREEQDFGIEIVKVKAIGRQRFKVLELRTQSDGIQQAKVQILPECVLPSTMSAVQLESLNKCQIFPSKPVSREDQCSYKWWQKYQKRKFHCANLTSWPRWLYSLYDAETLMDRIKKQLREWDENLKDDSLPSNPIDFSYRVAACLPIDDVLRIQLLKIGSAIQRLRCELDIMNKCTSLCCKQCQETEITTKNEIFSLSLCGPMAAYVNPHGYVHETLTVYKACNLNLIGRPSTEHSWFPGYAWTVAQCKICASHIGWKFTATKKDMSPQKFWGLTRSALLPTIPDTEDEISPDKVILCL
assay text: Inhibition of probe labeling at screening concentration (Table 1)
Assay type: binding
Design: endogenous in cells; host or cells: cell lysate
assay setup: native folded protein, read-out: Percentage inhibition of probe labeling, CRBN_287
Write down the numeric answer in % and omit the unit.

The cases that follow already have their inhibition at 500 µM on record.
[[record]]
smiles_representation = "C=CC(=O)N1CCC(Oc2cc(C)cc(-c3ccccc3OC)c2)CC1"
measured = 94

[[record]]
smiles_representation = "C=CC(=O)N1CCC(Oc2cc(C)cc(-c3ccccc3)c2)CC1"
measured = 72

[[record]]
smiles_representation = "C=CC(=O)N1CCC(Cc2cccc(-c3ccccc3NC(C)=O)c2)CC1"
measured = 69

[[record]]
smiles_representation = "C=CC(=O)N1CCC(Nc2cc(C(N)=O)cc(-c3ccccc3CC)c2)CC1"
measured = 97


Kindly consider the entry below.
## Task // inhibition at 500 µM lookup, key: `CCc1ccccc1-c1cccc(NC2CCN(C(=O)/C=C/CC(C)C)CC2)c1`
## Result 98

----------
assayed target: TEC_449 (Homo sapiens, UniProt P42680)
Construct: In each the cell lysate was pretreated with compound; endogenous in cells
Sequence (P42680 whole entry): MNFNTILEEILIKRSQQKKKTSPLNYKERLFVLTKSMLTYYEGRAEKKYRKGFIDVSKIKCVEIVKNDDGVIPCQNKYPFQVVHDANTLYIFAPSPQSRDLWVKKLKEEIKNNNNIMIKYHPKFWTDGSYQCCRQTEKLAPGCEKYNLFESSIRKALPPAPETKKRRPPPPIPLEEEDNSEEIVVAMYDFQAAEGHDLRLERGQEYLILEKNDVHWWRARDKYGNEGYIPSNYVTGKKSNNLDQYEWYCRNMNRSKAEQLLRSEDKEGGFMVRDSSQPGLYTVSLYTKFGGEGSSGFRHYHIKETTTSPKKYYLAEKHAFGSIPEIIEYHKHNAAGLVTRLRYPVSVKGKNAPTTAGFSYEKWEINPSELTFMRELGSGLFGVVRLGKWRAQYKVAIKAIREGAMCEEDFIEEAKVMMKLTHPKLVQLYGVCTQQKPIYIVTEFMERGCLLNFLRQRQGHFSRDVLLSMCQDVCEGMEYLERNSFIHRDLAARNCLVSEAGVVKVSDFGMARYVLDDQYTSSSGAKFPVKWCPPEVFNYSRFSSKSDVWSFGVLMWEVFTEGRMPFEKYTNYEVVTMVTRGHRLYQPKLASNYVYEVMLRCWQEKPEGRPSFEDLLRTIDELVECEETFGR
assay text: Probe labeling at native and denatured states after pretreatment (Table 2)
Assay type: binding
assay setup: native state, screening concentration
endpoint: inhibition of probe labeling, TEC_449, Nat. (%)
Write down the numeric answer in % and omit the unit.

The cases that follow already have their inhibition of probe labeling, TEC_449, Nat. on record.
[[record]]
compound = "C=CC(=O)N1CC(Cc2ccc(C)cc2)C1"
assayed_target = "TEC_449 (Homo sapiens, UniProt P42680)"
reading_unit = "%"
measured = 99

[[record]]
compound = "C=CC(=O)N(c1ccccc1)c1ccc(Br)cc1 [reference compound]"
assayed_target = "TEC_449 (Homo sapiens, UniProt P42680)"
reading_unit = "%"
measured = 96

[[record]]
compound = "C=CC(=O)N1CCC(Oc2cccc(-c3ccccc3OC)c2)CC1 [drawing 206]"
assayed_target = "TEC_449 (Homo sapiens, UniProt P42680)"
reading_unit = "%"
measured = 4


Kindly consider the entry below.
## Task // inhibition of probe labeling, TEC_449, Nat. lookup, key: C=CC(=O)N1CCC(Oc2cc(C#N)cc(-c3ccccc3OC)c2)CC1 [drawing 205]
## Result 28

----------
Test system: PRTN_B
assay text: Inhibition of probe labeling at screening concentration (Table 1)
Type: binding
assay setup: 500 μM
Quick list: Percentage inhibition of probe labeling, PRTN_B per entry.
Write down the numeric answer in % and omit the unit.

The cases that follow already have their Percentage inhibition of probe labeling, PRTN_B on record.
[[record]]
smiles_representation = "C=CC(=O)N1CCC(Cc2cccc(-c3ccccc3NC(C)=O)c2)CC1"
measured = 8

[[record]]
smiles_representation = "C=CC(=O)N1CCC(Oc2cc(C)cc(-c3ccccc3OC)c2)CC1"
measured = 2

[[record]]
smiles_representation = "C=CC(=O)N1CCC(Nc2cc(C(N)=O)cc(-c3ccccc3CC)c2)CC1"
measured = 0

[[record]]
smiles_representation = "CCc1ccccc1-c1cccc(NC2CCN(C(=O)/C=C/CC(C)C)CC2)c1"
measured = 3


Kindly consider the entry below.
## Task // Percentage inhibition of probe labeling, PRTN_B lookup, key: `C=CC(=O)N1CCC(Oc2cc(C)cc(-c3ccccc3)c2)CC1`
## Result −1

----------
assayed target: BTK_481 (Homo sapiens)
Construct: In each the cell lysate was pretreated with compound; endogenous in cells
Sequence (Q06187 whole entry): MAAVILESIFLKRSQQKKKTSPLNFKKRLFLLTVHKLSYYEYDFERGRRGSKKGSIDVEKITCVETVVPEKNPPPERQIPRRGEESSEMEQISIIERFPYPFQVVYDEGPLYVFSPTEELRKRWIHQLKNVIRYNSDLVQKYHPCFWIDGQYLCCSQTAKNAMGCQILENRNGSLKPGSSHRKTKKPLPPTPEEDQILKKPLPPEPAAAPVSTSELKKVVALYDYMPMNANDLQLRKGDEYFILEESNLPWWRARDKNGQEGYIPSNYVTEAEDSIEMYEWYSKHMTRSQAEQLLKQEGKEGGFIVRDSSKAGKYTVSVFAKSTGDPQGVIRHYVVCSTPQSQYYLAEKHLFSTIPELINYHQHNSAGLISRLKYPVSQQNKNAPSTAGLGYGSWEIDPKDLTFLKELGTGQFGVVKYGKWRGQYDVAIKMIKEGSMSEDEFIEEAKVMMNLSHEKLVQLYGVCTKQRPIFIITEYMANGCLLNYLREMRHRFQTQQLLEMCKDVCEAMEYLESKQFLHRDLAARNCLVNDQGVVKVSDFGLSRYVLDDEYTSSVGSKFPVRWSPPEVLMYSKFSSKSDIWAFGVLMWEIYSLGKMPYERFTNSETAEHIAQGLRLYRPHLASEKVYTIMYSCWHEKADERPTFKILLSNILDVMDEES
assay text: Probe labeling at native and denatured states after pretreatment (Table 2)
Type: binding
assay setup: denatured state, screening concentration
endpoint: inhibition of probe labeling, BTK_481, Den. (%)
Write down the numeric answer in % and omit the unit.

[[record]]
compound = "C=CC(=O)N1CCC(Oc2cc(C#N)cc(-c3ccccc3OC)c2)CC1 [drawing 205]"
measured = 21

[[record]]
compound = "C=CC(=O)N1CC(Cc2ccc(C)cc2)C1"
measured = 99

[[record]]
compound = "C=CC(=O)N(c1ccccc1)c1ccc(Br)cc1 [reference compound]"
measured = 98


Kindly consider the entry below.
## Task // inhibition of probe labeling, BTK_481, Den. lookup, key: C=CC(=O)N1CCC(Oc2cccc(-c3ccccc3OC)c2)CC1 [drawing 206]
## Result −28

----------
Quick list: inhibition at 31.2 µM per entry.
assayed target: CRBN Cys287 (Homo sapiens)
Construct: endogenous in cells
assay text: Inhibition of iodoacetamide probe labeling of CRBN cysteines, cell lysate (Table 3A)
Assay type: binding
assay setup: 31.2 micromolar, cell lysate, 1 h; read-out: % inhibition of iodoacetamide probe labeling, Cys287
Write down the numeric answer in % and omit the unit.

The cases that follow already have their inhibition at 31.2 µM on record.
[[record]]
compound = "CC(/C=C(\\C#N)C(=O)N1CCC(c2ccccc2)C1)c1ccccc1 (stereo not shown)"
assayed_target = "CRBN Cys287 (Homo sapiens)"
measured = 95

[[record]]
compound = "COc1ccccc1-c1cc(OC2CCN(C(=O)/C(C#N)=C/C(C)C)CC2)cc(C(N)=O)c1"
assayed_target = "CRBN Cys287 (Homo sapiens)"
measured = 98

[[record]]
compound = "COc1ccccc1-c1cc(C#N)cc(OC2CCN(C(=O)/C(C#N)=C/C(C)(C)C)CC2)c1"
assayed_target = "CRBN Cys287 (Homo sapiens)"
measured = 97


## Task // inhibition at 31.2 µM lookup, key: CC(/C=C(\C#N)C(=O)N1CCC(Oc2cccc(C#N)c2)CC1)c1ccccc1 (stereo not shown)
## Result 82

----------
assayed target: TEC_449 (Homo sapiens)
Construct: In each the cell lysate was pretreated with compound; endogenous in cells
assay text: Probe labeling at native and denatured states after pretreatment (Table 2)
Assay type: binding
assay setup: denatured state, screening concentration
endpoint: inhibition of probe labeling, TEC_449, Den. (%)
Write down the numeric answer in % and omit the unit.

The cases that follow already have their inhibition of probe labeling, TEC_449, Den. on record.
[[record]]
compound = "C=CC(=O)N(c1ccccc1)c1ccc(Br)cc1 [reference compound]"
reading_unit = "%"
measured = 95

[[record]]
compound = "C=CC(=O)N1CC(Cc2ccc(C)cc2)C1"
reading_unit = "%"
measured = 98

[[record]]
compound = "C=CC(=O)N1CCC(Oc2cccc(-c3ccccc3OC)c2)CC1 [drawing 206]"
reading_unit = "%"
measured = "−4"


## Task // inhibition of probe labeling, TEC_449, Den. lookup, key: C=CC(=O)N1CCC(Oc2cc(C#N)cc(-c3ccccc3OC)c2)CC1 [drawing 205]
## Result 33

----------
assayed target: CRBN_C287 (Homo sapiens)
Construct: endogenous in cells; host or cells: cell lysate
assay text: CRBN C287 inhibition, probe labeling in lysate (Example 42)
Assay type: binding
assay setup: TE50, CRBN_C287, lysate 1 h
Quick list: pIC50 per entry.
Value format note: pIC50 is -log10 of concentration (mol/L); just state the number.

The cases that follow already have their pIC50 on record.
[[record]]
molecule = "C=CC(=O)N1CCC(Oc2cc(OC(F)(F)F)cc(-c3ccccc3OC)c2)CC1"
measured = 4.51

[[record]]
molecule = "C#CCOCCOCCOCCOc1ccc(OC)c(-c2cc(C#N)cc(OC3CCN(C(=O)C=C)CC3)c2)c1"
measured = 5.59

[[record]]
molecule = "C=CC(=O)N1CCC(Oc2cc(C#N)cc(-c3ccccc3OC)c2)C(C)C1 (single isomer, unassigned) [Example 34]"
measured = 5.05

[[record]]
molecule = "C=CC(=O)N1CC[C@H](Oc2cc(C#N)cc(-c3ccccc3OC)c2)[C@@H](F)C1"
measured = 5.90

[[record]]
molecule = "C=CC(=O)N1CC[C@@H](Oc2cc(C#N)cc(-c3ccccc3OC)c2)[C@@H](F)C1"
measured = 5.83


## Task // pIC50 lookup, key: C=CC(=O)N1CCC(Oc2cc(C#N)cc(-c3ccccc3OC)c2)C(C)C1 (single isomer, unassigned) [Example 35]
## Result 5.01

## Task // pIC50 lookup, key: `C=CC(=O)N1CCC(Sc2cccc(-c3ccccc3OC)c2)CC1`
## Result 4.51

## Task // pIC50 lookup, key: `C=CC(=O)N1CCC(Oc2cc(C#N)cc(-c3ccccc3CC)c2)CC1`
## Result 4.65

Source of measurements: patent US20220298213A1
